# Measured On: CDK5/p25 (Homo sapiens)
# Sequence (Q00535 whole entry, species assumed): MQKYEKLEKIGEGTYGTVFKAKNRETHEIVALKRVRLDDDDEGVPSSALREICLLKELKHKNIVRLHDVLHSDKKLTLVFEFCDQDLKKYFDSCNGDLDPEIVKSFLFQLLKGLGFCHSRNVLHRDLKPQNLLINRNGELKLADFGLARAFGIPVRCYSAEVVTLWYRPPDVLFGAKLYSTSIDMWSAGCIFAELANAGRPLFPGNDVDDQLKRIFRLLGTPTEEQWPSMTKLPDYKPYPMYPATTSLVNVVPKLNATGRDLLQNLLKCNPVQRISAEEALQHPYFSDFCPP
# Sequence (Q15078 99-307 partner limits assumed, species assumed): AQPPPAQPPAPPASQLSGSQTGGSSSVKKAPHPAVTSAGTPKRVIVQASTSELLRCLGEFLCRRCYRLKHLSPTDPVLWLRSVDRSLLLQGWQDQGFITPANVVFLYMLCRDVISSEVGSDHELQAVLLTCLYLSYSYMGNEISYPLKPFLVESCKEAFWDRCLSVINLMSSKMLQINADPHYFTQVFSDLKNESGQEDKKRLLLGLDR
# Experimental Details: ADP-Glo kinase assay, CDK5
# Type: biochemical
# Recorded Conditions: 11.5 nM CDK5/p25, 10 μM ATP (Km), Histone H1, 60 min; read-out: inhibitory activity (IC50, nM) CDK5
Each record here notes measured IC50.
Your answer should be a plain number; it is taken to be in nM.

{"Given Smiles": "C[C@H](Nc1ncc2c(n1)CN(C(=O)N[C@H](CN(C)C)c1ccccc1)[C@H](C)C2)c1ccccn1", "Measured On": "CDK5/p25 (Homo sapiens)", "IC50 / nM": 6420}

// switching to the query compound
[Q] Quickly give me recorded IC50 for `C[C@@H]1Cc2cnc(NCc3ccn(C)n3)nc2CN1C(=O)N[C@H](CN(C)C)c1ccccc1`
[A] 6310

----------
# Measured On: CDK9/Cyclin T1 (Homo sapiens)
# Experimental Details: ADP-Glo kinase assay, CDK9
# Type: biochemical
# Recorded Conditions: 15.3 nM CDK9/Cyclin T1, 60 μM ATP (Km), PDKtide, 120 min; read-out: inhibitory activity (IC50, nM) CDK9
Experimental Readout: IC50

{"Compound": "C[C@@H]1Cc2cnc(NCc3ccn(C)n3)nc2CN1C(=O)N[C@H](CN(C)C)c1ccccc1 [Example 2]", "IC50": "1580 nM"}

[Q] Quickly give me recorded IC50 for C[C@H](Nc1ncc2c(n1)CN(C(=O)N[C@H](CN(C)C)c1ccccc1)[C@H](C)C2)c1ccccn1 [Example 6]
[A] 4270 nM

----------
# Experimental Details: Human liver microsome metabolism study
# Format: in vitro ADME
# Recorded Conditions: human liver microsomes, in-vitro intrinsic clearance
Experimental Readout: microsomal CLint at 1 μM

{"Molecule": "C[C@@H]1Cc2cnc(NCc3ccn(C)n3)nc2CN1C(=O)[C@H]1CCN(C)C[C@@H]1c1ccccc1 [Janssen-01, reference compound]", "microsomal CLint at 1 μM": "19 µL/min/mg"}

// switching to the query molecule
[Q] Quickly give me recorded microsomal CLint at 1 μM for `C[C@@H]1Cc2cnc(NCc3ccn(C)n3)nc2CN1C(=O)N[C@H](CN(C)C)c1ccccc1`
[A] < 7.5 µL/min/mg

----------
# Test system: PANC-1 pancreatic cancer cells
# Experimental Details: Inhibitory activity against tumor cells, CellTiter-Glo: PANC-1
# Assay type: cell-based
# Recorded Conditions: Homo sapiens, 120 h, PANC-1, 5 days treatment
Each record here notes measured pIC50.
# pIC50: negative log10 of molar concentration; output just the value

{"Compound": "C[C@H](Nc1ncc2c(n1)CN(C(=O)N[C@H](CN(C)C)c1ccccc1)[C@H](C)C2)c1ccccn1 [Example 6]", "Measured On": "PANC-1 pancreatic cancer cells", "pIC50": 7.75}

[Q] Quickly give me recorded pIC50 for C[C@@H]1Cc2cnc(NCc3ccn(C)n3)nc2CN1C(=O)N[C@H](CN(C)C)c1ccccc1 [Example 2]
[A] 7.34

[Q] Quickly give me recorded pIC50 for [2H]C([2H])([2H])N(C[C@@H](NC(=O)N1Cc2nc(NCc3ccn(C)n3)ncc2C[C@H]1C)c1ccccc1)C([2H])([2H])[2H] [Example 12]
[A] 7.30

----------
# Tested on: OVCAR3 ovarian cancer cells
# Experimental Details: Inhibitory activity against ovarian cancer cells (OVCAR3), CellTiter-Glo viability
# Format: cell-based
# Recorded Conditions: Homo sapiens, OVCAR-3, 120 h, OVCAR3, 5 days treatment
Each record here notes measured log10 IC50.
A difference of one corresponds to tenfold IC50; all values are log10 with IC50 in nM.

Worked examples, 6 compounds total:
{"Compound": "[2H]C([2H])([2H])N(C[C@@H](NC(=O)N1Cc2nc(N[C@@H](C)c3ccccn3)ncc2C[C@H]1C)c1ccccc1)C([2H])([2H])[2H]", "Measured On": "OVCAR3 ovarian cancer cells", "Result Value": 1.42}
{"Compound": "C[C@H](Nc1ncc2c(n1)CN(C(=O)N[C@H](CN(C)C)c1ccccc1)[C@H](C)C2)c1ccccn1", "Measured On": "OVCAR3 ovarian cancer cells", "Result Value": 1.44}
{"Compound": "C[C@@H]1Cc2cnc(NCc3ccn(C)n3)nc2CN1C(=O)N[C@H](CN(C)C)c1ccccc1", "Measured On": "OVCAR3 ovarian cancer cells", "Result Value": 1.38}
{"Compound": "[2H]C([2H])([2H])n1ccc(CNc2ncc3c(n2)CN(C(=O)N[C@H](CN(C)C)c2ccccc2)[C@H](C)C3)n1", "Measured On": "OVCAR3 ovarian cancer cells", "Result Value": 1.61}
{"Compound": "C[C@@H]1Cc2cnc(NC3Cc4ccccc4C3)nc2CN1C(=O)N[C@H](CN(C)C)c1ccccc1", "Measured On": "OVCAR3 ovarian cancer cells", "Result Value": 0.81}
{"Compound": "Cc1cc(Nc2ncc3c(n2)CN(C(=O)N[C@H](CN(C)C)c2ccccc2)[C@H](C)C3)ccn1", "Measured On": "OVCAR3 ovarian cancer cells", "Result Value": 1.43}

[Q] Quickly give me recorded log10 IC50 for `CCN(C)C[C@@H](NC(=O)N1Cc2nc(NCc3ccn(C)n3)ncc2C[C@H]1C)c1ccccc1`
[A] 1.77

[Q] Quickly give me recorded log10 IC50 for `C#Cc1cccc([C@@H]2CN(C)CC[C@H]2C(=O)N2Cc3nc(NCc4ccn(C)n4)ncc3C[C@H]2C)c1`
[A] 1.06

[Q] Quickly give me recorded log10 IC50 for CC1Cc2cnc(NC3CCOCC3)nc2CN1C(=O)N[C@H](CN(C)C)c1ccccc1 (stereo partly drawn)
[A] 1.63

[Q] Quickly give me recorded log10 IC50 for `C[C@@H]1Cc2cnc(N[C@H](C)c3ccccc3)nc2CN1C(=O)N[C@H](CN(C)C)c1ccccc1`
[A] 1.91

[Q] Quickly give me recorded log10 IC50 for `C[C@H](Nc1ncc2c(n1)CN(C(=O)N[C@H](CN(C)C)c1ccccc1)[C@H](C)C2)c1ccccc1`
[A] 1.14

----------
# Measured On: CDK6/CyclinD3 (Homo sapiens, UniProt Q00534)
# Sequence (Q00534 whole entry, species assumed): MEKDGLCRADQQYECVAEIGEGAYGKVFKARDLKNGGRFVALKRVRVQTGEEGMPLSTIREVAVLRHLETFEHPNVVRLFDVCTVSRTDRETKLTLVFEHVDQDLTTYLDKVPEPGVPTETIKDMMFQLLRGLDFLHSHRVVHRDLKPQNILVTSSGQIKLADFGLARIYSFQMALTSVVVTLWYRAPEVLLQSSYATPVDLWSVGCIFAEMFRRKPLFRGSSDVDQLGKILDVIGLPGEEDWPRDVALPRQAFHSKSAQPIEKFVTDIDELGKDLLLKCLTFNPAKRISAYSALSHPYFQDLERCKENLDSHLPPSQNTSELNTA
# Sequence (P30281 whole entry partner, species assumed): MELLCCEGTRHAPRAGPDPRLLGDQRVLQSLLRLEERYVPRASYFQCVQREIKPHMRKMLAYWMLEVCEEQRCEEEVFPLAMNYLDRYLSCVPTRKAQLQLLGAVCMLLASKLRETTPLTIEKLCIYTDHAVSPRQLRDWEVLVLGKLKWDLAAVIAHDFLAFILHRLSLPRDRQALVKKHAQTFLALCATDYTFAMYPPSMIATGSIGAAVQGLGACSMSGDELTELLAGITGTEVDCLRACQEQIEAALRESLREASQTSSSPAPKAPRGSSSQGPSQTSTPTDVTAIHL
# Experimental Details: ADP-Glo kinase assay, CDK6
# Format: biochemical
# Recorded Conditions: 15.7 nM CDK6/CyclinD3, 200 μM ATP (Km), Histone H1, 60 min; read-out: inhibitory activity (IC50, nM) CDK 6
Each record here notes measured IC50.

{"Compound": "C[C@H](Nc1ncc2c(n1)CN(C(=O)N[C@H](CN(C)C)c1ccccc1)[C@H](C)C2)c1ccccn1 [Example 6]", "Experimental Readout": "IC50", "Result Value": "> 10000 nM"}

[Q] Quickly give me recorded IC50 for C[C@@H]1Cc2cnc(NCc3ccn(C)n3)nc2CN1C(=O)N[C@H](CN(C)C)c1ccccc1 [Example 2]
[A] > 10000 nM

----------
# Measured On: CDK1/CyclinB (Homo sapiens, UniProt P06493)
# Sequence (P06493 whole entry, species assumed): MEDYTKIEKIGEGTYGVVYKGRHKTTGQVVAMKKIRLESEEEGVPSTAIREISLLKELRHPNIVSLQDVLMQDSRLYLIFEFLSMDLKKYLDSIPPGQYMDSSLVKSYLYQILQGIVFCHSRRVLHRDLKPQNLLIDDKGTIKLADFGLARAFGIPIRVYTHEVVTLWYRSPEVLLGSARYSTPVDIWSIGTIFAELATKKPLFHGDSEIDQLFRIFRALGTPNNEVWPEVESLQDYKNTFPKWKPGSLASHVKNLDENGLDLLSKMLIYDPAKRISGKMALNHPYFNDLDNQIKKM
# Sequence (P14635 whole entry partner, species assumed): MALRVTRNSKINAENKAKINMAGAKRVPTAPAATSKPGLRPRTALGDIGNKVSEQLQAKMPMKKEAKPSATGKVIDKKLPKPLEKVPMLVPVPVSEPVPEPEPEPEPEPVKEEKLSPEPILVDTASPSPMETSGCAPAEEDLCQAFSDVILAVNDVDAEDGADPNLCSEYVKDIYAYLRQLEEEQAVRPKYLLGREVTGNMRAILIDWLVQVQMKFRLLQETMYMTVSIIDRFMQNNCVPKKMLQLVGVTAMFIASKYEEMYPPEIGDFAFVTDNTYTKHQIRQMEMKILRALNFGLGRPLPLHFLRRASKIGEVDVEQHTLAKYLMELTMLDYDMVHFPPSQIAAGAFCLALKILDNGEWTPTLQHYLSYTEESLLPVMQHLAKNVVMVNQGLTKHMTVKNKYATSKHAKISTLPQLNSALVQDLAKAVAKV
# Experimental Details: ADP-Glo kinase assay, CDK1
# Type: biochemical
# Recorded Conditions: 16.5 nM CDK1/CyclinB, 20 μM ATP (Km), Histone H1, 120 min; read-out: inhibitory activity (IC50, nM) CDK1
Each record here notes measured IC50.

{"Given Smiles": "C[C@H](Nc1ncc2c(n1)CN(C(=O)N[C@H](CN(C)C)c1ccccc1)[C@H](C)C2)c1ccccn1", "Result Value": "> 10000 nM"}

// switching to the query compound
[Q] Supply IC50 measured with CDK1/CyclinB (Homo sapiens, UniProt P06493) for `C[C@@H]1Cc2cnc(NCc3ccn(C)n3)nc2CN1C(=O)N[C@H](CN(C)C)c1ccccc1` .
[A] > 10000 nM

----------
Each record here notes measured IC50.
# Measured On: CDK12/CyclinK (Homo sapiens)
# Sequence (Q9NYV4 whole entry, species assumed): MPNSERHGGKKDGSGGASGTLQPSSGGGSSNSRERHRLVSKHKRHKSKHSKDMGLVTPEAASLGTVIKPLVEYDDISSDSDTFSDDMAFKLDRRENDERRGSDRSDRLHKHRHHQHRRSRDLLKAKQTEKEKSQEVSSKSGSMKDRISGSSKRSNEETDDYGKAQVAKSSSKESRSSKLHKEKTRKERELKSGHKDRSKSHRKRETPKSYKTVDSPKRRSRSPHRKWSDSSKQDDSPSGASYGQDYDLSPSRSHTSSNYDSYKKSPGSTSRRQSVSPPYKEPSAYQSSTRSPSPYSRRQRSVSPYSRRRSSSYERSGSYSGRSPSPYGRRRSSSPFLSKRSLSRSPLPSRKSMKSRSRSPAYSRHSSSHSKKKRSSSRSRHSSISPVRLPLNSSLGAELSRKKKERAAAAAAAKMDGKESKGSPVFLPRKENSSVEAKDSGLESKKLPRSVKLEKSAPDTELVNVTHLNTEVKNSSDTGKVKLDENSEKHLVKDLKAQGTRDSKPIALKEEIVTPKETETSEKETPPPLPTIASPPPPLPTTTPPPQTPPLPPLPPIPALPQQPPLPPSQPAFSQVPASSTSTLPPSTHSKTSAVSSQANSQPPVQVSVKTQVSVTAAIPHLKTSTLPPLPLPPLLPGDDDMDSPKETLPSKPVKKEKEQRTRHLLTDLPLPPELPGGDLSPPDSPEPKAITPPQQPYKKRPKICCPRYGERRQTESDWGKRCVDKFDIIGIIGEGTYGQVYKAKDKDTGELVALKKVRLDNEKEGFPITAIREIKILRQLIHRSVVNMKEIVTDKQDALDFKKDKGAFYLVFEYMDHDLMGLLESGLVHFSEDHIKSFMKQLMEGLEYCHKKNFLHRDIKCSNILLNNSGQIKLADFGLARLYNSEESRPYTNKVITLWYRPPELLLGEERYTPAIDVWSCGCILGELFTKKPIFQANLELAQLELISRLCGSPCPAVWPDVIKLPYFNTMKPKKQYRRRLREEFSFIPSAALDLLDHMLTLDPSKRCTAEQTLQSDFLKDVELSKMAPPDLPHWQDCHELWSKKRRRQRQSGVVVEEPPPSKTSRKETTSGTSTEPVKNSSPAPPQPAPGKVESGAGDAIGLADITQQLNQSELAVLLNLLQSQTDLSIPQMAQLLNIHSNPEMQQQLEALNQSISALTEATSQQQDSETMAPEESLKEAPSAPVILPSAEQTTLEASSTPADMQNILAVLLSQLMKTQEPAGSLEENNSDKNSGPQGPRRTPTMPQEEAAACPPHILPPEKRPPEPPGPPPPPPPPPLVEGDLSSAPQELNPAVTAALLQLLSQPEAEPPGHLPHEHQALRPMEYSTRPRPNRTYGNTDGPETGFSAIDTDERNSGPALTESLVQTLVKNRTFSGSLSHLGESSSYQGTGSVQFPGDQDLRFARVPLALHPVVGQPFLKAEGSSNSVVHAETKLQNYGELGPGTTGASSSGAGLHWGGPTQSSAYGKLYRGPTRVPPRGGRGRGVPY
# Sequence (O75909 whole entry partner, species assumed): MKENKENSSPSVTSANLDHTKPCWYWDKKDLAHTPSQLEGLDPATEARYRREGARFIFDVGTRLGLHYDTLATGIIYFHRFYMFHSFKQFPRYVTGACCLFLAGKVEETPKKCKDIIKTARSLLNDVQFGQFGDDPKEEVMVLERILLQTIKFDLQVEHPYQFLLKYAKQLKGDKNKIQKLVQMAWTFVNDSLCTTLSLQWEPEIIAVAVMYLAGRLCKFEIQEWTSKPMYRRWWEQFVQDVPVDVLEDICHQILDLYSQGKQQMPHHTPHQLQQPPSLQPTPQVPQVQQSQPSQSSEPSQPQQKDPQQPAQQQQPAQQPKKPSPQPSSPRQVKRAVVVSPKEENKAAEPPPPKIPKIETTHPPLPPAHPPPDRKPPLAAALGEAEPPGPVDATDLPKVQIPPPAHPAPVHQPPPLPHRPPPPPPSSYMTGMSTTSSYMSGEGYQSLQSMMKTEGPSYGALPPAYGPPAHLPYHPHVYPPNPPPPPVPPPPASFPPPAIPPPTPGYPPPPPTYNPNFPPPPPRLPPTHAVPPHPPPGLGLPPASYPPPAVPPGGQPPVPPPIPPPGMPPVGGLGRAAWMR
# Experimental Details: ADP-Glo kinase assay, CDK12
# Type: biochemical
# Recorded Conditions: 150 nM CDK12/CyclinK, 20 μM ATP (Km), pS7-CTD peptide, 120 min; read-out: inhibitory activity (IC50, nM) CDK12

{"Compound": "C[C@H](Nc1ncc2c(n1)CN(C(=O)N[C@H](CN(C)C)c1ccccc1)[C@H](C)C2)c1ccccn1 [Example 6]", "IC50": "> 10000 nM"}

// switching to the query compound
[Q] Supply IC50 measured with CDK12/CyclinK (Homo sapiens) for C[C@@H]1Cc2cnc(NCc3ccn(C)n3)nc2CN1C(=O)N[C@H](CN(C)C)c1ccccc1 [Example 2] .
[A] > 10000 nM

----------
# Experimental Details: Human liver microsome metabolism study
# Assay type: in vitro ADME
# Recorded Conditions: human liver microsomes, in-vitro half-life
Experimental Readout: half-life at 1 μM (h)
Your answer should be a plain number; it is taken to be in h.

[Q] Quickly give me recorded half-life at 1 μM for C[C@@H]1Cc2cnc(NCc3ccn(C)n3)nc2CN1C(=O)[C@H]1CCN(C)C[C@@H]1c1ccccc1 [Janssen-01, reference compound]
[A] 1.22

----------
Each record here notes measured IC50.
# Measured On: CDK7/Cyclin H/MAT1 (Homo sapiens, UniProt P50613)
# Sequence (P50613 whole entry, species assumed): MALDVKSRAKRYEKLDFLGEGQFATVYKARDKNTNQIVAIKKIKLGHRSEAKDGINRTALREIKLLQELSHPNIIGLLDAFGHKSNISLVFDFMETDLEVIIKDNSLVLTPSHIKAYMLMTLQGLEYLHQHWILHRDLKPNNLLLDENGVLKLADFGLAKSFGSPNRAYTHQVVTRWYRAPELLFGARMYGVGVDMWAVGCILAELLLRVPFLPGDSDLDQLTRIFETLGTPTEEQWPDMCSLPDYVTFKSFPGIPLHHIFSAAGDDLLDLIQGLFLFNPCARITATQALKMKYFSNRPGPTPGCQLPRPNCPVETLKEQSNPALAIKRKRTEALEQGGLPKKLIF
# Sequence (P51946 whole entry partner, species assumed): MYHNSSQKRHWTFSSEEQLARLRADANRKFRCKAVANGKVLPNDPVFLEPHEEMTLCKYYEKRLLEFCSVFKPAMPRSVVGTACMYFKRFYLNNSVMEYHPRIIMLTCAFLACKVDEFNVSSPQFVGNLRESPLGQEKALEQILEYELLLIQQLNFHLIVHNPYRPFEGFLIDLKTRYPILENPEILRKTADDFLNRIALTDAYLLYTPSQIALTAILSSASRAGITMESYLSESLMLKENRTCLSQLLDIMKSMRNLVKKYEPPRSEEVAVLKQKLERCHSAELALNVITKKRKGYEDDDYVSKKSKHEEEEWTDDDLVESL
# Sequence (P51948 whole entry partner, species assumed): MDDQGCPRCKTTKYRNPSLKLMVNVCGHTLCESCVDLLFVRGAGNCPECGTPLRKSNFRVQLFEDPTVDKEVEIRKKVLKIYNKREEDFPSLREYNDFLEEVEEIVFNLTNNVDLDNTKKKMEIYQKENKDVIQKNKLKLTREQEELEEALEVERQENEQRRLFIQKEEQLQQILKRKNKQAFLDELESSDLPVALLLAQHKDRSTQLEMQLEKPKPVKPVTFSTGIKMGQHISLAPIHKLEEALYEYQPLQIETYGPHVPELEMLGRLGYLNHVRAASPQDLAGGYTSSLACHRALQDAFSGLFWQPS
# Experimental Details: ADP-Glo kinase assay, CDK7
# Format: biochemical
# Recorded Conditions: 80 nM CDK7/Cyclin H/MAT1, 70 μM ATP (Km), MBP, 60 min; read-out: inhibitory activity (IC50, nM) CDK7
Your answer should be a plain number; it is taken to be in nM.

Worked examples, 2 compounds total:
{"Compound": "C[C@H](Nc1ncc2c(n1)CN(C(=O)N[C@H](CN(C)C)c1ccccc1)[C@H](C)C2)c1ccccn1", "Measured On": "CDK7/Cyclin H/MAT1 (Homo sapiens, UniProt P50613)", "IC50 / nM": 28.4}
{"Compound": "C[C@@H]1Cc2cnc(NCc3ccn(C)n3)nc2CN1C(=O)[C@H]1CCN(C)C[C@@H]1c1ccccc1 [Janssen-01, reference compound]", "Measured On": "CDK7/Cyclin H/MAT1 (Homo sapiens, UniProt P50613)", "IC50 / nM": 25.2}

// switching to the query compound
[Q] Quickly give me recorded IC50 for `C[C@@H]1Cc2cnc(NCc3ccn(C)n3)nc2CN1C(=O)N[C@H](CN(C)C)c1ccccc1`
[A] 21.9
